These entries and their values trace back to paper doi:10.1101/706168v1.

Molecular target: hERG (Homo sapiens)
Sequence (Q12809 whole entry): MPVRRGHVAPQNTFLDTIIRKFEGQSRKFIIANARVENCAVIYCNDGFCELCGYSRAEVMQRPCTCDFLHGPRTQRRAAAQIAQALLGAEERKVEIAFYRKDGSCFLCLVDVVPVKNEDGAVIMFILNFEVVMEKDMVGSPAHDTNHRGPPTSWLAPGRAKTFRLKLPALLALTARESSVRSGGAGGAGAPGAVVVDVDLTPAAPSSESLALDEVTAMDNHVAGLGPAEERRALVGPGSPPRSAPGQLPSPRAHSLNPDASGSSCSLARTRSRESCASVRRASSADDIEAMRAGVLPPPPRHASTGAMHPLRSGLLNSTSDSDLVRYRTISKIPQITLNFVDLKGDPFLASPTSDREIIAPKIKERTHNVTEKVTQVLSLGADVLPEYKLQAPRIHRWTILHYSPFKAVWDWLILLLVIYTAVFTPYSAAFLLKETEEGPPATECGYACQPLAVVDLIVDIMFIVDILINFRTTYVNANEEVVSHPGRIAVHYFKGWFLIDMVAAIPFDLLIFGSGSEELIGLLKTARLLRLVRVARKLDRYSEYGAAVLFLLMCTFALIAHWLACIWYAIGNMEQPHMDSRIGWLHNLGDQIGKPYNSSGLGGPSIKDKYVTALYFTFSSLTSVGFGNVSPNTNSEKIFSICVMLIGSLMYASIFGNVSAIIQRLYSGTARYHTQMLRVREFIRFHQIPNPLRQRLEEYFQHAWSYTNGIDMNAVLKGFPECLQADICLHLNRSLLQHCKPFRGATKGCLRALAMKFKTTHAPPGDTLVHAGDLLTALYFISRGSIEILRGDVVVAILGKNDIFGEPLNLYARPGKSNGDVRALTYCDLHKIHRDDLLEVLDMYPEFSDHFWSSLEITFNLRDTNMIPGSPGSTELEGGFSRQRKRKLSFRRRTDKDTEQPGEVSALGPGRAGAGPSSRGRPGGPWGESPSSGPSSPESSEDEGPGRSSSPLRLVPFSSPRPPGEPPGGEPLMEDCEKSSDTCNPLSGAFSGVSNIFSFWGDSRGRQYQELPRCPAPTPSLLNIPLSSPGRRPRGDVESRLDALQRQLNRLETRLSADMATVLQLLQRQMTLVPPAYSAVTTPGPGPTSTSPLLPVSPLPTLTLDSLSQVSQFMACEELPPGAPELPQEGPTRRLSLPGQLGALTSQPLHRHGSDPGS
reported-property: pIC50
Numbers only, as −log10 of the molar value.

# input I'd like to know its pIC50. The molecule in question is "O=C(c1ccccc1F)N1CCN(Cc2c(-c3ccc(Br)cc3)nc3ccccn23)CC1"
# output 5.62

----------
Target: TRPV4 (Homo sapiens, UniProt Q9HBA0)
Sequence (Q9HBA0 whole entry): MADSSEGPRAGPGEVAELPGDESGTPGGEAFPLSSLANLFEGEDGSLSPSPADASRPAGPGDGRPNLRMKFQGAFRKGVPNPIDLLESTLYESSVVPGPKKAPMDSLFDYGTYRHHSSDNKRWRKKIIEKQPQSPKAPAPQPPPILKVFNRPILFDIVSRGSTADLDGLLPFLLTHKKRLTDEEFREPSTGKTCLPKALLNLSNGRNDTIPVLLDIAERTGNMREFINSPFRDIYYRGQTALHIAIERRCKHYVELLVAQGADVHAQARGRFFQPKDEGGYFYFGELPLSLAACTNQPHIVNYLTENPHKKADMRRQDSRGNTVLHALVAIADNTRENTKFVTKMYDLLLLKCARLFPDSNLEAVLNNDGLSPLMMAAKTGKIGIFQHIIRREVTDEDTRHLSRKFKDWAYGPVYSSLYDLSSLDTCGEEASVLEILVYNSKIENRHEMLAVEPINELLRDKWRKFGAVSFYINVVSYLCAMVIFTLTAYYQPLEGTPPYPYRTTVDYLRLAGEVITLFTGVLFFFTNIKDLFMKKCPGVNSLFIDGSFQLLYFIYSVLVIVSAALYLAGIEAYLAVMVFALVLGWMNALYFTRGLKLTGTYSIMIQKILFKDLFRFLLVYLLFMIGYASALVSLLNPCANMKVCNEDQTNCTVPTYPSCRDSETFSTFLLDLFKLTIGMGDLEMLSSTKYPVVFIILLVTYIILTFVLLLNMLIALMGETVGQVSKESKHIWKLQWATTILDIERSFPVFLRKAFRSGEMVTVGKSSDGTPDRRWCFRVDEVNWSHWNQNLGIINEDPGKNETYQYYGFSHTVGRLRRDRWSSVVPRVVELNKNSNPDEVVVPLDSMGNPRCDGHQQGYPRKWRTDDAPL
pIC50: −log10 of the molar value.
reported-property: pIC50

# input I'd like to know its pIC50. The compound in question is "O=C(c1ccccc1F)N1CCN(Cc2c(-c3ccc(Br)cc3)nc3ccccn23)CC1"
# output < 4.52
